- study target: Chymase purified from human skin mast cells (Homo sapiens, UniProt P23946)
- Construct: Chymase purified from human skin mast cells was obtained from Calbiochem; purchased Calbiochem (Merck Biosciences, San Diego, Calif., USA); host or cells: human skin mast cells (natural source)
- Sequence (P23946 22-247): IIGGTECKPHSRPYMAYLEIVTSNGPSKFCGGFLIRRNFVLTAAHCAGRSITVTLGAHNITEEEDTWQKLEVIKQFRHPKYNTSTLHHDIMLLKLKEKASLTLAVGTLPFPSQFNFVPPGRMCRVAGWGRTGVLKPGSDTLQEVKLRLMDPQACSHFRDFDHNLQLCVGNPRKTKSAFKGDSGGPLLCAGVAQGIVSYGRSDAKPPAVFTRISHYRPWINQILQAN
- procedure text: chymase peptide substrate assay (AAPF-AMC fluorescence)
- Type: biochemical
- measurement parameters: 0.02 mM AAPF-substrate, 1 nM Chymase, pH 7.4, room temperature, 30 min pre-incubation; read-out: IC50
- From the text: The peptide was synthesized with a purity of 95% from Bachem, Bubendorf, Switzerland). Chymase purified from human skin mast cells was obtained from Calbiochem (Merck Biosciences, San Diego, Calif., USA). […] Chymase activity was indicated by the initial rate of increase in fluorescence at 340/440 nm (excitation/emission) from free 7-amino-4-methylcoumarin released from the substrate. […]
pIC50: −log10 of the molar value.
quantity kind: pIC50

I = Cc1c(S(=O)(=O)Nc2ccc(C3CCNCC3)cc2S(C)(=O)=O)sc2ccc(F)cc12 [Example 21]
II = CCc1cc(-c2ccncc2)ccc1NS(=O)(=O)c1sc2ccc(F)cc2c1C [Example 16]
Query: Could you tell me which of I and II has the lower pIC50 reading? Please identify the chosen entry by its label.
Response: II
(II: 6.97, I: 8.52)
